The origin of these recorded values is paper PMC12102759.

As shown below, each of these variants has a reported screen value value.
B1: MXI1 peptide 4-19 (Max-interacting protein 1), 16-mer library wild type / SIN3A PAH2 (SIN3A PAH domain, residues 295-383) (parent)
chain 1: VKMINVQRLLEAAEFL
chain 2: SLQNNQPVEFNHAINYVNKIKNRFQGQPDIYKAFLEILHTYQKEQRNAKEAGGNYTPALTEQEVYAQVARLFKNQEDLLSEFGQFLPDA

Variants of: B1
Assay: proteomic peptide phage display deep mutational scan (ProP-PD DMS): M13 P8 16-mer library selected against immobilised GST-tagged bait for four days (rounds), NGS of the eluted pools per day and pseudo-replica
Conditions: with SIN3A PAH2 (SIN3A PAH domain, residues 295-383); bait immobilised on MaxiSorp plates (10 µg), library pre-cleared on GST, 2 h binding at 4 °C, five washes; one round per day, days 1-4; value from days 2 and 3; keep out of graded; scale: average fractional NGS count over selection days 2 and 3
Simply state the number, no unit and no words.

Recorded results for 8 variants are shown here.
[
  {
    "residue-string": "chain 1 VYMINVQRLLEAAEFL [chain 1 K2Y]",
    "value-reported": 0.00178
  },
  {
    "residue-string": "chain 1 VKMINVQRLLEAARFL [chain 1 E14R]",
    "value-reported": 0.00116
  },
  {
    "residue-string": "chain 1 VKMINVQRLLEAAFFL [chain 1 E14F]",
    "value-reported": 0.000859
  },
  {
    "residue-string": "chain 1 VHMINVQRLLEAAEFL [chain 1 K2H]",
    "value-reported": 0.00169
  },
  {
    "residue-string": "chain 1 VKMINVQRLLEAAEFH [chain 1 L16H]",
    "value-reported": 0.000538
  },
  {
    "residue-string": "chain 1 VKMINVQRLLEAAEFV [chain 1 L16V]",
    "value-reported": "7.65e-05"
  },
  {
    "residue-string": "chain 1 VKMINVQRLLEAAERL [chain 1 F15R]",
    "value-reported": "3.85e-05"
  },
  {
    "residue-string": "chain 1 VKMWNVQRLLEAAEFL [chain 1 I4W]",
    "value-reported": "8.32e-05"
  }
]

Measured screen value of chain 1 VKMINYQRLLEAAEFL [chain 1 V6Y] : 0.000458

// screen value lookup, variant = chain 1 VSMINVQRLLEAAEFL [chain 1 K2S] , result: 0.00272

Memo: chain 1 VKMINVSRLLEAAEFL [chain 1 Q7S] , reported screen value: 0.000125

Summary for this variant, chain 1 VKMINVQRLLEAAEFM [chain 1 L16M] : screen value is 3.86e-05
